target: SNX27 PDZ (Homo sapiens)
Non-standard residues stand in square brackets, D forms with d. Residues, ends and D or L forms follow the SMILES beside them. pS = N[C@@H](COP(=O)(O)O)C(=O)O
Below: a set of entries, each annotated with reported Kd.
Just the number please, in µM, no unit attached.

Here's what some known entries look like.
CSCC[C@H](NC(=O)CNC(C)=O)C(=O)N[C@H](C(=O)N[C@@H](CO)C(=O)N[C@@H](CO)C(=O)N[C@H](C(=O)N[C@@H](CO)C(=O)N[C@@H](Cc1ccccc1)C(=O)N[C@@H](CC(N)=O)C(=O)NCC(=O)NCC(=O)N[C@@H](Cc1ccc(O)cc1)C(N)=O)[C@@H](C)O)C(C)C [DAXX606–616 wt] (Ac-GMVSSTSFNGGY-NH2) ... 300
CC(=O)N[C@@H](CC(N)=O)C(=O)N[C@@H](CC(C)C)C(=O)N[C@@H](CC(C)C)C(=O)N[C@@H](CC(C)C)C(=O)N[C@@H](CCC(=O)O)C(=O)N[C@@H](CCCNC(=N)N)C(=O)N[C@@H](CC(=O)O)C(=O)N[C@H](C(=O)N[C@@H](CCC(=O)O)C(=O)N[C@@H](Cc1ccccc1)C(=O)N[C@H](C(=O)N[C@H](C(=O)N[C@@H](C)C(=O)N1CCC[C@H]1C(=O)N[C@@H](CC(=O)O)C(=O)N[C@@H](Cc1ccc(O)cc1)C(N)=O)C(C)C)[C@@H](C)O)[C@@H](C)O [CDC25C30–44 E] (Ac-NLLLERDTEFTVAPDY-NH2) ... 680
CSCC[C@H](NC(=O)CNC(C)=O)C(=O)N[C@H](C(=O)N[C@@H](CO)C(=O)N[C@@H](CCC(=O)O)C(=O)N[C@H](C(=O)N[C@@H](CO)C(=O)N[C@@H](Cc1ccccc1)C(=O)N[C@@H](CC(N)=O)C(=O)NCC(=O)NCC(=O)N[C@@H](Cc1ccc(O)cc1)C(N)=O)[C@@H](C)O)C(C)C [DAXX606–616 E] (Ac-GMVSETSFNGGY-NH2) ... 23

For CC(=O)N[C@@H](CC(N)=O)C(=O)N[C@@H](CC(C)C)C(=O)N[C@@H](CC(C)C)C(=O)N[C@@H](CC(C)C)C(=O)N[C@@H](CCC(=O)O)C(=O)N[C@@H](CCCNC(=N)N)C(=O)N[C@@H](CC(=O)O)C(=O)N[C@H](C(=O)N[C@@H](CO)C(=O)N[C@@H](Cc1ccccc1)C(=O)N[C@H](C(=O)N[C@H](C(=O)N[C@@H](C)C(=O)N1CCC[C@H]1C(=O)N[C@@H](CC(=O)O)C(=O)N[C@@H](Cc1ccc(O)cc1)C(N)=O)C(C)C)[C@@H](C)O)[C@@H](C)O [CDC25C30–44 wt] (Ac-NLLLERDTSFTVAPDY-NH2) on SNX27 PDZ (Homo sapiens), measured Kd was 111

For CC(=O)N[C@@H](CC(N)=O)C(=O)N[C@@H](CC(C)C)C(=O)N[C@@H](CC(C)C)C(=O)N[C@@H](CC(C)C)C(=O)N[C@@H](CCC(=O)O)C(=O)N[C@@H](CCCNC(=N)N)C(=O)N[C@@H](CC(=O)O)C(=O)N[C@H](C(=O)N[C@@H](COP(=O)(O)O)C(=O)N[C@@H](Cc1ccccc1)C(=O)N[C@H](C(=O)N[C@H](C(=O)N[C@@H](C)C(=O)N1CCC[C@H]1C(=O)N[C@@H](CC(=O)O)C(=O)N[C@@H](Cc1ccc(O)cc1)C(N)=O)C(C)C)[C@@H](C)O)[C@@H](C)O [CDC25C30–44 pS] (Ac-NLLLERDT[pS]FTVAPDY-NH2) on SNX27 PDZ (Homo sapiens), measured Kd was 395

For CSCC[C@H](NC(=O)CNC(C)=O)C(=O)N[C@H](C(=O)N[C@@H](CO)C(=O)N[C@@H](COP(=O)(O)O)C(=O)N[C@H](C(=O)N[C@@H](CO)C(=O)N[C@@H](Cc1ccccc1)C(=O)N[C@@H](CC(N)=O)C(=O)NCC(=O)NCC(=O)N[C@@H](Cc1ccc(O)cc1)C(N)=O)[C@@H](C)O)C(C)C [DAXX606–616 pS] (Ac-GMVS[pS]TSFNGGY-NH2) on SNX27 PDZ (Homo sapiens), measured Kd was 96

---

target: UniProtKB P49792
Sequence (P49792 2924-3050): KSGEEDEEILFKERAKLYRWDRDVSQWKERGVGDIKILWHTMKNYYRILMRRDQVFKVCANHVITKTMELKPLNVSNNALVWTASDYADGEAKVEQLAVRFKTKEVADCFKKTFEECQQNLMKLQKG
Non-standard residues stand in square brackets, D forms with d. Residues, ends and D or L forms follow the SMILES beside them. pT = C[C@@H](OP(=O)(O)O)[C@H](N)C(=O)O; pS = N[C@@H](COP(=O)(O)O)C(=O)O
Below: a set of entries, each annotated with reported pKd.
In simple prose, pKd is minus the logarithm base ten of a concentration in moles per litre.

Here's what some known entries look like.
CC(=O)N[C@@H](Cc1c[nH]cn1)C(=O)N[C@@H](CC(C)C)C(=O)N1CCC[C@H]1C(=O)N[C@@H](CC(C)C)C(=O)N[C@@H](CC(N)=O)C(=O)N[C@@H](COP(=O)(O)O)C(=O)N1CCC[C@H]1C(=O)N[C@@H](CC(C)C)C(=O)N1CCC[C@H]1C(=O)NCC(=O)N[C@@H](CO)C(=O)N[C@@H](CCC(=O)O)C(=O)N[C@@H](CC(C)C)C(=O)N[C@H](C(=O)N[C@@H](CCCCN)C(=O)N[C@@H](Cc1ccc(O)cc1)C(N)=O)[C@@H](C)O [INTS6_145–159 pS] (Ac-HLPLN[pS]PLPGSELTKY-NH2) ... 3.13
CC(=O)N[C@@H](CCCCN)C(=O)N[C@@H](Cc1ccc(O)cc1)C(=O)N[C@@H](CO)C(=O)N[C@@H](CC(=O)O)C(=O)N[C@@H](CC(=O)O)C(=O)N[C@H](C(=O)N1CCC[C@H]1C(=O)N[C@@H](CC(C)C)C(=O)N1CCC[C@H]1C(=O)N[C@H](C(=O)N1CCC[C@H]1C(=O)N[C@@H](CO)C(=O)N[C@@H](Cc1ccc(O)cc1)C(=O)N[C@@H](CCCCN)C(=O)N[C@@H](Cc1ccc(O)cc1)C(=O)N[C@@H](CC(N)=O)C(N)=O)[C@@H](C)O)[C@@H](C)O [DHX38_260–275 wt] (Ac-KYSDDTPLPTPSYKYN-NH2) ... 2.82

For CC(=O)N[C@@H](CCCCN)C(=O)N[C@@H](Cc1ccc(O)cc1)C(=O)N[C@@H](CO)C(=O)N[C@@H](CC(=O)O)C(=O)N[C@@H](CC(=O)O)C(=O)N[C@H](C(=O)N1CCC[C@H]1C(=O)N[C@@H](CC(C)C)C(=O)N1CCC[C@H]1C(=O)N[C@H](C(=O)N1CCC[C@H]1C(=O)N[C@@H](CO)C(=O)N[C@@H](Cc1ccc(O)cc1)C(=O)N[C@@H](CCCCN)C(=O)N[C@@H](Cc1ccc(O)cc1)C(=O)N[C@@H](CC(N)=O)C(N)=O)[C@@H](C)OP(=O)(O)O)[C@@H](C)O [DHX38_260–275 pS] (Ac-KYSDDTPLP[pT]PSYKYN-NH2) on UniProtKB P49792, measured pKd was 3.78

For CC(=O)N[C@@H](Cc1c[nH]cn1)C(=O)N[C@@H](CC(C)C)C(=O)N1CCC[C@H]1C(=O)N[C@@H](CC(C)C)C(=O)N[C@@H](CC(N)=O)C(=O)N[C@@H](CCC(=O)O)C(=O)N1CCC[C@H]1C(=O)N[C@@H](CC(C)C)C(=O)N1CCC[C@H]1C(=O)NCC(=O)N[C@@H](CO)C(=O)N[C@@H](CCC(=O)O)C(=O)N[C@@H](CC(C)C)C(=O)N[C@H](C(=O)N[C@@H](CCCCN)C(=O)N[C@@H](Cc1ccc(O)cc1)C(N)=O)[C@@H](C)O [INTS6_145–159 E] (Ac-HLPLNEPLPGSELTKY-NH2) on UniProtKB P49792, measured pKd was 2.97

For CC(=O)N[C@@H](Cc1c[nH]cn1)C(=O)N[C@@H](CC(C)C)C(=O)N1CCC[C@H]1C(=O)N[C@@H](CC(C)C)C(=O)N[C@@H](CC(N)=O)C(=O)N[C@@H](CO)C(=O)N1CCC[C@H]1C(=O)N[C@@H](CC(C)C)C(=O)N1CCC[C@H]1C(=O)NCC(=O)N[C@@H](CO)C(=O)N[C@@H](CCC(=O)O)C(=O)N[C@@H](CC(C)C)C(=O)N[C@H](C(=O)N[C@@H](CCCCN)C(=O)N[C@@H](Cc1ccc(O)cc1)C(N)=O)[C@@H](C)O [INTS6_145–159 wt] (Ac-HLPLNSPLPGSELTKY-NH2) on UniProtKB P49792, measured pKd was 3.48

For CC(=O)N[C@@H](CCCCN)C(=O)N[C@@H](Cc1ccc(O)cc1)C(=O)N[C@@H](CO)C(=O)N[C@@H](CC(=O)O)C(=O)N[C@@H](CC(=O)O)C(=O)N[C@H](C(=O)N1CCC[C@H]1C(=O)N[C@@H](CC(C)C)C(=O)N1CCC[C@H]1C(=O)N[C@@H](CCC(=O)O)C(=O)N1CCC[C@H]1C(=O)N[C@@H](CO)C(=O)N[C@@H](Cc1ccc(O)cc1)C(=O)N[C@@H](CCCCN)C(=O)N[C@@H](Cc1ccc(O)cc1)C(=O)N[C@@H](CC(N)=O)C(N)=O)[C@@H](C)O [DHX38_260–275 E] (Ac-KYSDDTPLPEPSYKYN-NH2) on UniProtKB P49792, measured pKd was 3.33
